Hello, the source for this data is patent US9376436B2, in case you need it.

Molecular target: hNaV1.7 (Homo sapiens)
Construct: expressed in transfected cells; host or cells: HEK293
Experiment: QPatch NaV1.7 assay (whole-cell patch clamp, QPatch16x)
Format: cell-based
Details: holding voltage V1/2 SSI (half of channels inactivated), HEK293-hNaV1.7 cells, read-out: QP Nav1.7 SSI vhalf pIC50 (converted)
Counter-ions that a name gives are not always drawn.
Property: IC50 (µM)

Cc1c(-c2ccc(C(F)(F)F)cc2)ccnc1[C@H]1CC[C@@]2(CCN(C)C2=O)N1 [Example 17, hydrochloride] | 3.16

I: CN1CC[C@@]2(CC[C@H](c3cc(-c4cccc5cccnc45)ccn3)N2)C1=O [Example 164, hydrochloride]
II: CCOc1ccc(F)c(-c2cc(C)nc([C@@H]3CC[C@]4(CCN(C)C4=O)N3C)c2)c1 [Example 231, hydrochloride]
III: Cc1cc(-c2cc(N3CCCC3=O)ccc2F)cc([C@H]2CC[C@@]3(CCN(C)C3=O)N2)n1 [Example 203, hydrochloride]
Put these in order: smallest IC50 first, largest last. Answer format: the labels, in the requested order.
II, I, III

###

Target: hNaV1.7 (Homo sapiens, UniProt Q15858)
Construct: expressed in transfected cells; host or cells: HEK293
Sequence (Q15858 whole entry): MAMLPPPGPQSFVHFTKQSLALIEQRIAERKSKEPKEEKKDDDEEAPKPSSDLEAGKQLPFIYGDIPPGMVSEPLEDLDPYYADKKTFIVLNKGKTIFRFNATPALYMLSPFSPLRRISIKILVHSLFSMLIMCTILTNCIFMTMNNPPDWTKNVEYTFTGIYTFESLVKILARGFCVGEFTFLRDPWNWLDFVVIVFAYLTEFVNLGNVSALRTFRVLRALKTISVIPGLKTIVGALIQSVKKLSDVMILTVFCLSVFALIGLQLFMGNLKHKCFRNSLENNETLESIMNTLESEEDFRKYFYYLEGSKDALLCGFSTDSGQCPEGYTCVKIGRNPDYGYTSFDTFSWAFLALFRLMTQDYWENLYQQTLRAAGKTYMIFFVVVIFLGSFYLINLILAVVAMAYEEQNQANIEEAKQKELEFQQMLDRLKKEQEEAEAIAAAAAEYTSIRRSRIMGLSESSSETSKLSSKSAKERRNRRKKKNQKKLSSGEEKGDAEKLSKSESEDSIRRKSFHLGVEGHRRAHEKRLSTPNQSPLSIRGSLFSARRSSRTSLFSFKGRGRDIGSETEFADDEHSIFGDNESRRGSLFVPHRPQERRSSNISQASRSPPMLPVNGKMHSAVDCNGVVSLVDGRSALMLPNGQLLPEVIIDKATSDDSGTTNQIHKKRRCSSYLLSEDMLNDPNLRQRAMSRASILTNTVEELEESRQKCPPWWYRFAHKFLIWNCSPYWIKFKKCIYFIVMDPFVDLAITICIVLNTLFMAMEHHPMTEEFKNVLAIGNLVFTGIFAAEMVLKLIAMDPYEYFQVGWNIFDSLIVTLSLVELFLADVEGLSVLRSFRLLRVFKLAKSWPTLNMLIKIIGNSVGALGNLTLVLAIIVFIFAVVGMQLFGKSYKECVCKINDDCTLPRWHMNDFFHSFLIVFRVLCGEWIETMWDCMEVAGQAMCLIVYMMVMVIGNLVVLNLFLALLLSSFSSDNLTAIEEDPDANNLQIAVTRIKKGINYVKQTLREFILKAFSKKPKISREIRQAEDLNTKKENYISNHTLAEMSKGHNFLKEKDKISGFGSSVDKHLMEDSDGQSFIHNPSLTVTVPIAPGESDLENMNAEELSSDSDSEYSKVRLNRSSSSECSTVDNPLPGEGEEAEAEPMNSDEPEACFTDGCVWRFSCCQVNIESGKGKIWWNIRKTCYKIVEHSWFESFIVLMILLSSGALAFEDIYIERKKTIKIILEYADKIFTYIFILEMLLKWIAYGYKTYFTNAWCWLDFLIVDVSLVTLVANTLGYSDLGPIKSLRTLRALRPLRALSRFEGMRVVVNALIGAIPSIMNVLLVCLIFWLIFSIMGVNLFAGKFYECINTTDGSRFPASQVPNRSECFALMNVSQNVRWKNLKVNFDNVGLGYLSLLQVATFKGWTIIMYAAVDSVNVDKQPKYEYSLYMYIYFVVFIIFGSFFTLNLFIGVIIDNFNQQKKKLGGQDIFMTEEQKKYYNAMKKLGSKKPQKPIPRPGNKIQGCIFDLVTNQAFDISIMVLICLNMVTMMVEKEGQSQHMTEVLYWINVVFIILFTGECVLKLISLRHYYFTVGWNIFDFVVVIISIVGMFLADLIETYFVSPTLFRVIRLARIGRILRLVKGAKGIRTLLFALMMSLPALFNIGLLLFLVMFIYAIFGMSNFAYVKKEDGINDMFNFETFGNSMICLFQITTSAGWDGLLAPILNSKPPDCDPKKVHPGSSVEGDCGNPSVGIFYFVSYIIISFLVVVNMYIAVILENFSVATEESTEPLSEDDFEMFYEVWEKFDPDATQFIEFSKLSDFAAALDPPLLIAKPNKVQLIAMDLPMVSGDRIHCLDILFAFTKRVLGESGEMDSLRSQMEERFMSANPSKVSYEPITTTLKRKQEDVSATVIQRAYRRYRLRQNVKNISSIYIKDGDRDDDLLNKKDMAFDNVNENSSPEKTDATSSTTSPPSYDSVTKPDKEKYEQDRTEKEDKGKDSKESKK
Experiment: QPatch NaV1.7 assay (whole-cell patch clamp, QPatch16x)
Type: cell-based
Conditions: holding voltage −90 mV (most channels closed), HEK293-hNaV1.7 cells, read-out: QP Nav1.7 −90 mV pIC50 (converted)
Counter-ions that a name gives are not always drawn.
Property: IC50 (µM)

Examples from the recorded data:
CN1CC[C@@]2(CC[C@H](c3cc(-c4ccc(F)c(F)c4)ccn3)N2)C1=O [Example 11, hydrochloride] | 200
COc1cc(C(F)(F)F)ccc1-c1cc([C@H]2CC[C@@]3(CCN(C)C3=O)N2)ncc1C [Example 131, hydrochloride] | 100
Cc1cc(-c2cc(C(F)(F)F)ccc2C(N)=O)cc([C@H]2CC[C@@]3(CCN(C)C3=O)N2)n1 [Example 24, hydrochloride] | 1000

A: CN1CC[C@@]2(CC[C@H](c3cc(-c4cn(C)c5ccccc45)ccn3)N2)C1=O [Example 157, hydrochloride]
B: CN1CCC[C@@]2(CC[C@H](c3cc(-c4ccc(F)cc4)ccn3)N2)C1=O [Example 71, hydrochloride]
Between the entries labeled A and B , whose measured IC50 is lower? Answer with the label corresponding to your selection.
A
(A: 79.4 µM, B: 126 µM)

###

Target: hNaV1.7 (Homo sapiens)
Construct: expressed in transfected cells; host or cells: HEK293
Experiment: QPatch NaV1.7 assay (whole-cell patch clamp, QPatch16x)
Type: cell-based
Settings: holding voltage V1/2 SSI (half of channels inactivated), HEK293-hNaV1.7 cells, read-out: QP Nav1.7 SSI vhalf pIC50 (converted)
Counter-ions that a name gives are not always drawn.
Property: IC50 (µM)

Examples from the recorded data:
CN1[C@@H](c2cc(-c3ccc(C(F)(F)F)cc3)ccn2)CC[C@]12CCCNC2=O [Example 232, hydrochloride] | 1.26
O=C1NCCC[C@]12CC[C@@H](c1cc(-c3ccc(C(F)(F)F)cc3)ccn1)N2 [Example 51, hydrochloride] | 5.01

A: Cc1cc(-c2cccc(OC(F)(F)F)c2)cc([C@@H]2CC[C@]3(CCN(C)C3=O)N2)n1 [Example 128, hydrochloride]
B: COc1cc(C(F)(F)F)ccc1-c1cc(C)nc([C@@H]2CC[C@]3(CCN(C)C3=O)N2)c1 [Example 91, hydrochloride]
Between the entries labeled A and B , whose measured IC50 is lower? Answer with the label corresponding to your selection.
B

###

Molecular target: hNaV1.7 (Homo sapiens, UniProt Q15858)
Construct: expressed in transfected cells; host or cells: HEK293
Assay: QPatch NaV1.7 assay (whole-cell patch clamp, QPatch16x)
Assay type: cell-based
Settings: holding voltage −90 mV (most channels closed), HEK293-hNaV1.7 cells, read-out: QP Nav1.7 −90 mV pIC50 (converted)
Structures can show the parent of a compound that is named as a salt.
Property: IC50 (µM)

I: COc1cc(C(F)(F)F)ccc1-c1cc([C@@H]2CC[C@@]3(CCN(C)C3=O)N2)ncc1C [Example 132, hydrochloride]
II: CCOc1ccc(F)c(-c2cc([C@H]3CC[C@@]4(CCN(C)C4=O)N3)nc(C)c2C)c1 [Example 144, hydrochloride]
Which of the two items, I and II , has the greater recorded IC50? Answer with the label corresponding to your selection.
I

1: CC(C)Oc1ccc(-c2ccnc([C@@H]3CC[C@@]4(CCN(C)C4=O)N3)c2)cc1 [Example 161, hydrochloride]
2: CCOc1ccc(F)c(-c2ccnc([C@@H]3CC[C@@]4(CC(C)(C)NC4=O)N3)c2)c1 [Example 216, hydrochloride]
3: CCOc1ccc(F)c(-c2cc(C(C)C)nc([C@@H]3CC[C@]4(CCN(C)C4=O)N3)c2)c1 [Example 235, hydrochloride]
4: CN1CC[C@@]2(CC[C@H](c3cc(-c4ccccc4OC(F)(F)F)ccn3)N2)C1=O [Example 3, hydrochloride]
5: CCOCc1ccc(F)c(-c2ccnc([C@H]3CC[C@@]4(CCN(C)C4=O)N3)c2)c1 [Example 189, hydrochloride]
Put these in order: smallest IC50 first, largest last. Answer format: the labels, in the requested order.
3, 2, 4, 1, 5

P: Cc1cc(-c2ccc(C(F)(F)F)cc2)cc([C@H]2CC[C@]3(CCNC3=O)N2C)n1 [Example 227, hydrochloride]
Q: CN1CC[C@@]2(CC[C@H](c3cc(-c4ccc(C(F)(F)F)cc4)ccn3)N2)C1=O [Example 52, hydrochloride]
Between the entries labeled P and Q , whose measured IC50 is lower? Answer with the label corresponding to your selection.
Q

###

Biological target: hNaV1.7 (Homo sapiens, UniProt Q15858)
Construct: expressed in transfected cells; host or cells: HEK293
Assay: QPatch NaV1.7 assay (whole-cell patch clamp, QPatch16x)
Type: cell-based
Conditions: holding voltage −90 mV (most channels closed), HEK293-hNaV1.7 cells, read-out: QP Nav1.7 −90 mV pIC50 (converted)
Where a name gives a salt, the structure may show the parent alone.
Property: IC50 (µM)

CC1(C)C[C@]2(CC[C@@H](c3cc(-c4ccc(C(F)(F)F)cc4)ccn3)N2)C(=O)N1 [Example 47, hydrochloride] | 31.6
COc1cnc([C@H]2CC[C@]3(CCN(C)C3=O)N2)cc1-c1ccc(C(F)(F)F)cc1 [Example 152, hydrochloride] | 200

a: CN1CCC[C@]2(CC[C@@H](c3cc(-c4ccc(F)cc4)ccn3)N2)C1=O [Example 73, hydrochloride]
b: Cc1cc(-c2ccc(OC(C)C)nc2)cc([C@@H]2CC[C@]3(CCN(C)C3=O)N2)n1 [Example 209, hydrochloride]
Which of the two items, a and b , has the greater recorded IC50? Answer with the label corresponding to your selection.
a

###

Target: hNaV1.7 (Homo sapiens, UniProt Q15858)
Construct: expressed in transfected cells; host or cells: HEK293
Assay: QPatch NaV1.7 assay (whole-cell patch clamp, QPatch16x)
Type: cell-based
Conditions: holding voltage −90 mV (most channels closed), HEK293-hNaV1.7 cells, read-out: QP Nav1.7 −90 mV pIC50 (converted)
Structures can show the parent of a compound that is named as a salt.
Property: IC50 (µM)

A: COc1cnc([C@H]2CC[C@@]3(CCN(C)C3=O)N2)cc1-c1ccc(C(F)(F)F)cc1 [Example 155, hydrochloride]
B: CCOc1cc(-c2ccnc([C@@H]3CC[C@@]4(CCN(C)C4=O)N3)c2)c(F)cc1F [Example 148, hydrochloride]
Between the entries labeled A and B , whose measured IC50 is lower? Answer with the label corresponding to your selection.
A

###

Target: hNaV1.7 (Homo sapiens, UniProt Q15858)
Construct: expressed in transfected cells; host or cells: HEK293
Test: QPatch NaV1.7 assay (whole-cell patch clamp, QPatch16x)
Format: cell-based
Conditions: holding voltage V1/2 SSI (half of channels inactivated), HEK293-hNaV1.7 cells, read-out: QP Nav1.7 SSI vhalf pIC50 (converted)
Where a name gives a salt, the structure may show the parent alone.
Property: IC50 (µM)

CCOc1ccc(F)c(-c2cc(C)nc([C@H]3CC[C@@]4(CCN(C)C4=O)N3)c2)c1 [Example 93, hydrochloride] | 3.98
O=C1NCCC[C@]12CC[C@H](c1cc(-c3ccc(F)cc3)ccn1)N2 [Example 112, hydrochloride] | 3.98
CC(C)Oc1ccc(-c2ccnc([C@H]3CC[C@@]4(CCN(C)C4=O)N3)c2)cc1C#N [Example 180, hydrochloride] | 20
O=C1NCCC[C@@]12CC[C@@H](c1cc(-c3ccc(F)cc3)ccn1)N2 [Example 110, hydrochloride] | 10

P: Cc1c(-c2ccc(F)cc2)ccnc1[C@@H]1CC[C@@]2(CCN(C)C2=O)N1 [Example 20, hydrochloride]
Q: Cc1cc(-c2ccc(C(F)(F)F)cc2)cc([C@@H]2CC[C@]3(CCN(C)C3=O)N2)n1 [Example 30, hydrochloride]
Which of the two items, P and Q , has the greater recorded IC50? Answer with the label corresponding to your selection.
P
